Experiment: Cytotoxicity against African green monkey Vero cells assessed as reduction in cell viability incubated for 72 hrs by MTT assay
Format: toxicity, cell-based
Conditions: chlorocebus sabaeus
Mark true only for CC50 at 72 h values smaller than 60 µM; exact matches and larger values are false.

Example entries begin here.
[[record]]
molecule = "CN(c1ccnc2cc(Cl)ccc12)C(Cc1ccccc1)CN1CCOCC1 (configuration not stated)"
classification = "true"

[[record]]
molecule = "CN(CCCN1CCCC1)c1ccnc2cc(C(F)(F)F)ccc12"
classification = "false"


Q) Is the reported CC50 at 72 h for CN(c1ccnc2cc(Cl)ccc12)C(Cc1ccccc1)CN1CCCC1 (configuration not stated) strictly below 60 µM?
A) true

Q) Is the reported CC50 at 72 h for CC(C)CC(CN1CCCC1)N(C)c1ccnc2cc(C(F)(F)F)ccc12 (configuration not stated) strictly below 60 µM?
A) true

Q) Is the reported CC50 at 72 h for `CN(CCCN1CCOCC1)c1ccnc2cc(C(F)(F)F)ccc12` strictly below 60 µM?
A) false

Q) Is the reported CC50 at 72 h for CC(C)CC(CN1CCOCC1)N(C)c1ccnc2cc(Cl)ccc12 (configuration not stated) strictly below 60 µM?
A) true

Q) Is the reported CC50 at 72 h for CN(c1ccnc2cc(C(F)(F)F)ccc12)C(Cc1ccccc1)CN1CCCC1 (configuration not stated) strictly below 60 µM?
A) true

Q) Is the reported CC50 at 72 h for CC(C)CC(CN1CCN(C)CC1)N(C)c1ccnc2cc(Cl)ccc12 (configuration not stated) strictly below 60 µM?
A) true

Q) Is the reported CC50 at 72 h for CC(C)CC(CN1CCCCC1)N(C)c1ccnc2cc(C(F)(F)F)ccc12 (configuration not stated) strictly below 60 µM?
A) true

###

Tested on: Plasmodium falciparum
Assay: Antimalarial activity against CQ-resistant Plasmodium falciparum RKL9
Format: functional, organism-based
PARAMETER_MEASURED: IC50 (nM)
Numeric answer only, unit nM assumed.

[[record]]
smiles = "COc1cc(/C=N/Nc2ccnc3cc(Cl)ccc23)ccc1O"
parameter_measured = "IC50"
readout_units = "nM"
measured = 9


Kindly consider the entry below.
Q) Fill in: IC50 of `O=[N+]([O-])c1ccc(/C=N/Nc2ccnc3cc(Cl)ccc23)cc1` is ___
A) 9

###

Tested on: Hemozoin
Experiment: Inhibition of Beta-hematin formation in Plasmodium falciparum K1 by spectrophotometric analysis
PARAMETER_MEASURED: IC50 (µM)
Numeric answer only, unit µM assumed.

[[record]]
smiles = "N#Cc1ccc(-c2cncn2CCNc2ccnc3cc(Cl)ccc23)cc1"
measured = 0.73

[[record]]
smiles = "CN(C)c1ccc(-c2cncn2CCNc2ccnc3cc(Cl)ccc23)cc1"
measured = 1.09

[[record]]
smiles = "Clc1ccc2c(NCCn3cncc3C3CCCCC3)ccnc2c1"
measured = 0.52

[[record]]
smiles = "FC(F)(F)c1ccc(-c2cncn2CCNc2ccnc3cc(Cl)ccc23)cc1"
measured = 0.45

[[record]]
smiles = "Cc1ccsc1-c1cncn1CCNc1ccnc2cc(Cl)ccc12"
measured = 0.46

[[record]]
smiles = "COc1ccc(-c2cncn2CCNc2ccnc3cc(Cl)ccc23)cc1"
measured = 1.78


Q) Fill in: IC50 of `Fc1ccc(-c2cncn2CCNc2ccnc3cc(Cl)ccc23)cc1` is ___
A) 3.04

###

Test: Cytotoxicity against African green monkey Vero cells
Assay type: toxicity, cell-based
Conditions: chlorocebus sabaeus
PARAMETER_MEASURED: CC50

[[record]]
smiles = "N=C(N=C(N)N)SCCNc1ccnc2cc(Cl)ccc12"
parameter_measured = "CC50"
measured = "> 11.8 µM"

[[record]]
smiles = "N=C(N=C(N)N)SCCCCNc1cc(C(F)(F)F)nc2c(C(F)(F)F)cccc12"
parameter_measured = "CC50"
measured = "> 8.93 µM"

[[record]]
smiles = "N=C(N=C(N)N)SCCCCNc1ccnc2cc(Cl)ccc12"
parameter_measured = "CC50"
measured = "> 11 µM"

[[record]]
smiles = "CCc1nc(N)nc(N)c1-c1ccc(Cl)cc1"
parameter_measured = "CC50"
measured = "18.1 µM"

[[record]]
smiles = "N=C(N=C(N)N)SCCCNc1ccnc2cc(Cl)ccc12"
parameter_measured = "CC50"
measured = "> 11.4 µM"


Q) Fill in: CC50 of `N=C(N=C(N)N)SCCCCNc1ccnc2cc(C(F)(F)F)ccc12` is ___
A) > 10.2 µM

Q) Fill in: CC50 of `N=C(N=C(N)N)SCCCNc1cc(C(F)(F)F)nc2c(C(F)(F)F)cccc12` is ___
A) > 9.17 µM

Q) Fill in: CC50 of `N=C(N=C(N)N)SCCCNc1ccnc2cc(C(F)(F)F)ccc12` is ___
A) > 10.6 µM

Q) Fill in: CC50 of `N=C(N=C(N)N)SCCNc1ccnc2cc(C(F)(F)F)ccc12` is ___
A) > 10.9 µM

Q) Fill in: CC50 of `N=C(N=C(N)N)SCCNc1cc(C(F)(F)F)nc2c(C(F)(F)F)cccc12` is ___
A) > 9.42 µM

###

Test: Cytotoxicity against African green monkey Vero cells assessed as reduction in cell viability incubated for 24 hrs by MTT assay
Format: toxicity, cell-based
Settings: African green monkey (Chlorocebus sabaeus)
Below, each entry is listed alongside its reported IC50 at 24 h.
Numeric answer only, unit µM assumed.

[[record]]
smiles = "O=C(CCN1C(=O)c2ccc(N3CCOCC3)cc2C1=O)NCCCCNc1ccnc2cc(Cl)ccc12"
readout_units = "µM"
measured = 136


Q) Fill in: IC50 at 24 h of `O=C(CCN1C(=O)c2ccc(N3CCN(CCO)CC3)cc2C1=O)NCCCCNc1ccnc2cc(Cl)ccc12` is ___
A) 169

###

Assay: Cytotoxicity against African green monkey Vero cells assessed as reduction in cell viability incubated for 24 hrs by MTT assay
Assay type: toxicity, cell-based
Conditions: African green monkey (Chlorocebus sabaeus)
PARAMETER_MEASURED: IC50 at 24 h

Q) Fill in: IC50 at 24 h of `O=C(CN1C(=O)c2ccccc2C1=O)NCCNc1ccnc2cc(Cl)ccc12` is ___
A) > 245 µM

Q) Fill in: IC50 at 24 h of `O=C(CN1C(=O)c2ccccc2C1=O)NCCCCNc1ccnc2cc(Cl)ccc12` is ___
A) > 229 µM

Q) Fill in: IC50 at 24 h of `CCN(CC)c1ccc2c(c1)C(=O)N(CC(=O)NCCCCNc1ccnc3cc(Cl)ccc13)C2=O` is ___
A) 46.9 µM

Q) Fill in: IC50 at 24 h of `O=C(CCCN1C(=O)c2ccccc2C1=O)NCCNc1ccnc2cc(Cl)ccc12` is ___
A) > 229 µM

Q) Fill in: IC50 at 24 h of `O=C(CN1C(=O)c2ccc(N3CCOCC3)cc2C1=O)NCCNc1ccnc2cc(Cl)ccc12` is ___
A) > 203 µM

Q) Fill in: IC50 at 24 h of `CCN(CC)c1ccc2c(c1)C(=O)N(CCC(=O)NCCNc1ccnc3cc(Cl)ccc13)C2=O` is ___
A) 203 µM

Q) Fill in: IC50 at 24 h of `O=C(CCCN1C(=O)c2ccccc2C1=O)NCCCCNc1ccnc2cc(Cl)ccc12` is ___
A) > 215 µM

Q) Fill in: IC50 at 24 h of `O=C(CN1C(=O)c2ccc(N3CCOCC3)cc2C1=O)NCCCCCCNc1ccnc2cc(Cl)ccc12` is ___
A) 20.2 µM

Q) Fill in: IC50 at 24 h of `CCN(CC)c1ccc2c(c1)C(=O)N(CCC(=O)NCCCCCCNc1ccnc3cc(Cl)ccc13)C2=O` is ___
A) > 182 µM

###

Below, each entry is listed alongside its reported IC50.
Test system: Plasmodium falciparum
Test: Antimalarial activity against Plasmodium falciparum assessed as reduction in parasite growth incubated for 48 hrs by Giemsa staining based analysis
Format: functional, organism-based
Numeric answer only, unit µM assumed.

[[record]]
smiles = "NC(S)=NNc1ccnc2cc(Cl)ccc12"
readout_units = "µM"
measured = 25.4

[[record]]
smiles = "CC1=NC(=S)N(Nc2ccnc3cc(Cl)ccc23)C(=O)C1"
readout_units = "µM"
measured = 11.9

[[record]]
smiles = "COc1ccc(/C(C)=N/C(=S)NNc2ccnc3cc(Cl)ccc23)cc1OC"
readout_units = "µM"
measured = 38.7

[[record]]
smiles = "C/C(=N\\C(=S)NNc1ccnc2cc(Cl)ccc12)c1ccc2ccccc2c1"
readout_units = "µM"
measured = 79.9

[[record]]
smiles = "COc1ccc(/C(C)=N\\c2ccccc2Nc2ccnc3cc(Cl)ccc23)cc1OC"
readout_units = "µM"
measured = 49.7


Q) Fill in: IC50 of `Clc1ccc2c(Nc3nc[nH]n3)ccnc2c1` is ___
A) 42.6

Q) Fill in: IC50 of `C/C(=N/c1ccccc1Nc1ccnc2cc(Cl)ccc12)c1ccc2ccccc2c1` is ___
A) 77.6

Q) Fill in: IC50 of `Nc1ccccc1Nc1ccnc2cc(Cl)ccc12` is ___
A) 35.3
